Tested on: PXR:RXRa (NR concentration 270 nM, RXRa partner concentration 90 nM)
Assay: PBM binding z-score (relative to random genomic background probes); higher = stronger binding; sequences stand for … in GC…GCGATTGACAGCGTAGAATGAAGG
Label scheme for PBM binding z-score: lower (below 0.08), middle (0.08 to below 3), upper (3 or more)

Sequence input | Tested target | Class
TCTAGCAGGCCAGAGGGTCACTCCAGAGGTACGG | PXR:RXRa (NR concentration 270 nM, RXRa partner concentration 90 nM) | middle
ACAGACAGGTGAGTGAAGGGAACTCAGCTGGACG | PXR:RXRa (NR concentration 270 nM, RXRa partner concentration 90 nM) | lower
CATACAGGCTCAGCTAGGCCAGAGTAGGGACGGC | PXR:RXRa (NR concentration 270 nM, RXRa partner concentration 90 nM) | lower
CAAACTAGGTCACAAAGGTCAAAGTCCGTGCGTA | PXR:RXRa (NR concentration 270 nM, RXRa partner concentration 90 nM) | upper
CCTACTGGGCCAGAAAGGTCATTGATGCCGATAA | PXR:RXRa (NR concentration 270 nM, RXRa partner concentration 90 nM) | upper
GCTTGTAGACCAAGGTTAAGAAAGACTAAGCTAA | PXR:RXRa (NR concentration 270 nM, RXRa partner concentration 90 nM) | middle
AGCGAAAGGTCGACGAGGTGAGTATACACCGTTT | PXR:RXRa (NR concentration 270 nM, RXRa partner concentration 90 nM) | middle
TCGAGTAGGTTAGTCGGGGCACTCAGCCAACATA | PXR:RXRa (NR concentration 270 nM, RXRa partner concentration 90 nM) | lower
AGTCCAAGTTCAGGACGAGGTAACGTAAAGCACG | PXR:RXRa (NR concentration 270 nM, RXRa partner concentration 90 nM) | middle
CGTCAAATTTCAACTAAGGTAACGTAAAGCACGC | PXR:RXRa (NR concentration 270 nM, RXRa partner concentration 90 nM) | middle
ATATGTAGGTTAAGGGTCAATCAGGTTGGTTCGC | PXR:RXRa (NR concentration 270 nM, RXRa partner concentration 90 nM) | upper

====

Tested on: FXR:RXRa (NR concentration 270 nM, RXRa partner concentration 90 nM)
Experiment: PBM binding z-score (relative to random genomic background probes); higher = stronger binding; sequences stand for … in GC…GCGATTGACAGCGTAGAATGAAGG

Sequence input | PBM binding z-score
TAGCCTTGGTCATTCAGGGGCCAGTATAGAAAGC | -0.269
AGAACGAGGTTATTAAGATCAGGGAATTGCGGTC | 1.44
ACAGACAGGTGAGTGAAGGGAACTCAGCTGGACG | 0.599
TCGAGTAGGTTCGTCGGGGCATTCAGCCAACATA | 0.282
TTACCCAGGTGAAGGTCGTTGATCCCTCTGTAGA | 1.67
ACTATTAGTTGAGACGAGGGCAACCAATAGGTTG | 0.56
AGAACGAGGGCACGCTGAGTTGATAGTAGAGTAG | 0.725
TCTGCTATGTCAGTTGGTCAGCTAACGAGCTGCC | -0.167
CCTATTAGTCGACCATAAGGGCAACCGAAGCTCG | 0.245
GATACAGGGTCAAGGCCAGGGTACGCGTATTGAT | 6.68
CGAACTAGGTCAAGGACTGTGAATCTCCGCACGC | 3.02
ATCTCTAGGTAAAGATATTTCAGTGAATGCAAAT | 0.207

Cited source for all entries: the supplement of paper PMC6555819
